# SUBJECT OF TEST: human IgA (human)
# PROTOCOL NOTES: SPR (Biacore T100)
No end group written: not given here.
READOUT NAME: Kd (nM)
State just the number; it will be interpreted in nM.

Given HQVCLSYRGRPTCFST (not fully specified (bridges); cysteine pairing not given here) [Opt2 M2Q L16T V12T] , state its recorded Kd.
952

Given HQVCLSYRGQPVCFSL (not fully specified (bridges); cysteine pairing not given here) [Opt2 M2Q R10Q] , state its recorded Kd.
65

Given HQVCLSYRGRPVCFST (not fully specified (bridges); cysteine pairing not given here) [Opt2 M2Q L16T] , state its recorded Kd.
72

Given HQVCLSYRGQPTCFST (not fully specified (bridges); cysteine pairing not given here) [Opt2 M2Q L16T R10 Q V12T] , state its recorded Kd.
2820

Given HQVCLSYRGRPTCFSL (not fully specified (bridges); cysteine pairing not given here) [Opt2 M2Q V12T] , state its recorded Kd.
149

Given HQVCLSYRGQPVCFST (not fully specified (bridges); cysteine pairing not given here) [Opt2 M2Q L16T R10Q] , state its recorded Kd.
699

Given HMVCLSYRGRPVCF (not fully specified (bridges); cysteine pairing not given here) [Opt2 14AA] , state its recorded Kd.
603

Given HMVCLSYRGRPVCFS (not fully specified (bridges); cysteine pairing not given here) [Opt2 15AA] , state its recorded Kd.
491

Given HQVCLSYRGRPVCYSL (not fully specified (bridges); cysteine pairing not given here) [Opt2 M2Q F14Y] , state its recorded Kd.
624

Given HQVCLSYRGRPVCFSL (not fully specified (bridges); cysteine pairing not given here) [Opt2 M2Q] , state its recorded Kd.
23
